EC50 values by entry
Tested on: Aβ1-40 secreted from HEK293 cells stably expressing wildtype human APP695 protein (HEK-APPwt cells)
experiment.notes: Aβ Cell Based Assay (Aβ1-40 secretion, ELISA)
assay.conditions: Homo sapiens, HEK293, 6 h, 6 hours incubation, reduction of Aβ1-40 secretion
Protocol: Aβ Cell Based Assay Procedure In the following assay, the proteolytic activity of BACE in cells exposed to varying concentrations of a compound of interest is measured by observing the amount of Aβ1-40 secreted from HEK293 cells (Human Embryonic Kidney epithelial cell line) stably expressing wildtype human APP695 protein (HEK-APPwt cells). […] The intensity of the color developed was measured at 450 nm. […]

Past entries and their recorded results:
CN(C)c1cccc2nc(C(=O)Nc3nc4cc(-c5cccc(C(F)(F)F)c5)ccc4[nH]3)cn12 0.37 µM
COCCCNCc1ccn2cc(C(=O)Nc3nc4cc(-c5cccc(C(F)(F)F)c5)ccc4[nH]3)nc2c1 4.91 µM
CN1CC=C(c2cccc3nc(C(=O)Nc4nc5cc(-c6cccc(C(F)(F)F)c6)ccc5[nH]4)cn23)CC1 5.35 µM

INPUT: Quick one: give measured EC50 for "O=C(Nc1nc2cc(-c3cccc(OC(F)(F)F)c3)ccc2[nH]1)c1cn2ccccc2n1"
OUTPUT: 3.67 µM

INPUT: Quick one: give measured EC50 for "Cc1cccc2nc(C(=O)Nc3nc4cc(-c5cccc(C(F)(F)F)c5O)ccc4[nH]3)cn12"
OUTPUT: 4.85 µM

INPUT: Quick one: give measured EC50 for "Cc1cccn2cc(C(=O)Nc3nc4cc(-c5cccc(OC(F)(F)F)c5)ccc4[nH]3)nc12"
OUTPUT: 2.13 µM

INPUT: Quick one: give measured EC50 for "O=C(Nc1nc2cc(-c3cccc(C(F)(F)F)c3)ccc2[nH]1)c1cn2c(CNCCN3CCOCC3)cccc2n1"
OUTPUT: 5.23 µM

----------
IC50 values by entry
target.of.assay: BACE-1 enzyme (Homo sapiens, UniProt P56817)
Construct: purchased R & D Systems 931AS
Sequence (P56817 46-457 limits assumed): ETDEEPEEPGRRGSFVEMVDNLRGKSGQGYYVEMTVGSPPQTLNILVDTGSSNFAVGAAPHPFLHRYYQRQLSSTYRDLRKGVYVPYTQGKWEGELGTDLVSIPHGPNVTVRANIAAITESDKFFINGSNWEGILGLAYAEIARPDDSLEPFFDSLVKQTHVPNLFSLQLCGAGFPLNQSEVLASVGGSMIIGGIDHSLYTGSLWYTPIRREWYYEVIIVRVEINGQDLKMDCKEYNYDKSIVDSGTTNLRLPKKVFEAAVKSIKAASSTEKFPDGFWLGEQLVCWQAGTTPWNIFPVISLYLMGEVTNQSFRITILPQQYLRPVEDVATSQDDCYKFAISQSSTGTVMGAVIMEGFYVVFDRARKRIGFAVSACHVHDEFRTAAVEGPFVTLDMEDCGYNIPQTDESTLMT
experiment.notes: BACE Fluorescence Resonance Energy Transfer (FRET) Assay
Type: biochemical
assay.conditions: pH 4-4.5, 30 min pre-incubation, about 1.5 hours reaction
Write the value in µM as a bare number.

Cc1cccc2nc(C(=O)Nc3nc4cc(CCc5ccc(C(F)(F)F)cc5)ccc4[nH]3)cn12 0.4
Cc1cc(OCCN2CCN(C)CC2)c2nc(C(=O)Nc3nc4cc(-c5cc(F)cc(Cl)c5)ccc4[nH]3)cn2c1 0.46
O=C(Nc1nc2cc(-c3cccc(C(F)(F)F)c3)ccc2[nH]1)c1cn2c(CO)cccc2n1 0.52

Attention now turns to another entry.
INPUT: Quick one: give measured IC50 for "COc1ccc(-c2ccc3[nH]c(NC(=O)c4cn5cccc(C)c5n4)nc3c2)cc1C(F)(F)F"
OUTPUT: 2.28

----------
target.of.assay: BACE-1 enzyme (Homo sapiens)
Construct: purchased R & D Systems 931AS
experiment.notes: BACE Fluorescence Resonance Energy Transfer (FRET) Assay
Assay type: biochemical
assay.conditions: pH 4-4.5, 30 min pre-incubation, about 1.5 hours reaction
Description: BACE Fluorescence Resonance Energy Transfer (FRET) Assay In the following assay, the proteolytic activity of BACE is measured by observing cleavage of a fluorescent group from a peptide substrate containing a rhodamine fluorescent donor and a quenching acceptor. The inhibitory activity of compounds of Formula (I) may be compared to a statine derived control inhibitor STA200 (MP Biomedical Cat. #STA-200). […]
IC50 values by entry
Write the value in µM as a bare number.

INPUT: # assay system BACE-1 enzyme (Homo sapiens): give IC50 of CO[C@H]1CCN(c2ccc3nc(C(=O)Nc4nc5cc(-c6cc(F)cc(Cl)c6)ccc5[nH]4)cn3c2C)C1 [Example 237]
OUTPUT: 0.23

INPUT: # assay system BACE-1 enzyme (Homo sapiens): give IC50 of O=C(Nc1nc2cc(-c3cccc(C(F)(F)F)c3)ccc2[nH]1)c1cn2cc(CN3CCOCC3)ccc2n1 [Example 182]
OUTPUT: 0.46

----------
target.of.assay: BACE-1 enzyme (Homo sapiens, UniProt P56817)
Construct: purchased R & D Systems 931AS
experiment.notes: BACE Fluorescence Resonance Energy Transfer (FRET) Assay
Format: biochemical
assay.conditions: pH 4-4.5, 30 min pre-incubation, about 1.5 hours reaction
result.type: log10 of IC50 (log10 of the value in µM)
Scale type: logarithmic (base 10). Underlying IC50 unit: µM.

Past entries and their recorded results:
compound	result.number
CN(C)Cc1cccn2cc(C(=O)Nc3nc4cc(-c5cccc(C(F)(F)F)c5)ccc4[nH]3)nc12	-0.15
O=C(Nc1nc2cc(-c3cc(F)cc(Cl)c3)ccc2[nH]1)c1cn2cc(F)cc(N3CCC(O)CC3)c2n1	0.12
Cc1cccc2nc(C(=O)Nc3nc4cc(N5CCC(c6ccccc6)CC5)ccc4[nH]3)cn12	0.16
Cc1cccc2nc(C(=O)Nc3nc4cc(-c5ccc(F)c(C(F)(F)F)c5)ccc4[nH]3)cn12	-0.31
CCOC(=O)c1ccn2cc(C(=O)Nc3nc4cc(-c5cc(F)cc(Cl)c5)ccc4[nH]3)nc2c1	-0.54
CO[C@@H]1CCN(c2ccc3nc(C(=O)Nc4nc5cc(-c6cc(F)cc(Cl)c6)ccc5[nH]4)cn3c2C)C1	-0.60
O=C(Nc1nc2cc(-c3cc(F)cc(Cl)c3)ccc2[nH]1)c1cn2ccccc2n1	-0.42
O=C(Nc1nc2cc(-c3cc(F)cc(Cl)c3)ccc2[nH]1)c1cn2c(N3CC[C@H](O)C3)cccc2n1	-0.60

INPUT: Quick one: give measured log10 of IC50 for "Cc1cccc2nc(C(=O)Nc3nc4cc(-c5cccc(F)c5)ccc4[nH]3)cn12"
OUTPUT: 0.17

INPUT: Quick one: give measured log10 of IC50 for "O=C(Nc1nc2cc(-c3cccc(C(F)(F)F)c3)ccc2[nH]1)c1cn2c(Br)cccc2n1"
OUTPUT: -0.66

INPUT: Quick one: give measured log10 of IC50 for "COCCn1c(NC(=O)c2cn3c(C)cccc3n2)nc2ccc(-c3cccc(C(F)(F)F)c3)cc21"
OUTPUT: -0.15

----------
target.of.assay: BACE-1 enzyme (Homo sapiens)
Construct: purchased R & D Systems 931AS
experiment.notes: BACE Fluorescence Resonance Energy Transfer (FRET) Assay
Format: biochemical
assay.conditions: pH 4-4.5, 30 min pre-incubation, about 1.5 hours reaction
Field 'label' (enum: 1 / 0). Set to 1 when IC50 is strictly under 0.5 µM; else 0.

INPUT: Consider "CNCc1cccn2cc(C(=O)Nc3nc4cc(-c5cccc(C(F)(F)F)c5)ccc4[nH]3)nc12" . Does its IC50 lie strictly below 0.5 µM?
OUTPUT: 1

INPUT: Consider "O=C(Nc1nc2cc(OCc3ccccc3)ccc2[nH]1)c1cn2cc(Cl)ccc2n1" . Does its IC50 lie strictly below 0.5 µM?
OUTPUT: 1

INPUT: Consider CCOc1ccc(-c2ccc3[nH]c(NC(=O)c4cn5c(C)cccc5n4)nc3c2)cc1Cl [Example 79] . Does its IC50 lie strictly below 0.5 µM?
OUTPUT: 0

----------
target.of.assay: BACE-1 enzyme (Homo sapiens)
Construct: purchased R & D Systems 931AS
experiment.notes: BACE Fluorescence Resonance Energy Transfer (FRET) Assay
Format: biochemical
assay.conditions: pH 4-4.5, 30 min pre-incubation, about 1.5 hours reaction
result.type: IC50 (µM)
Write the value in µM as a bare number.

Past entries and their recorded results:
compound	result.type	result.number
COCCCOc1cccc(-c2ccc3[nH]c(NC(=O)c4cn5c(C)cccc5n4)nc3c2)c1 [Example 39]	IC50	1.32
Cc1cccc2nc(C(=O)Nc3nc4cc(-c5ccc(Cl)c(C(F)(F)F)c5)ccc4n3CCN3CCOCC3)cn12 [Example 243]	IC50	6.9
COCCOc1cc(F)cn2cc(C(=O)Nc3nc4cc(-c5cc(F)cc(Cl)c5)ccc4[nH]3)nc12 [Example 140]	IC50	0.25
Cc1cccc2nc(C(=O)Nc3nc4cc(-c5cccc(Cl)c5)ccc4[nH]3)cn12 [Example 27]	IC50	0.5
O=C(Nc1nc2cc(-c3cccc(C(F)(F)F)c3)ccc2[nH]1)c1cn2ccc(CNCCN3CCOCC3)cc2n1 [Example 210]	IC50	0.18

INPUT: # assay system BACE-1 enzyme (Homo sapiens): give IC50 of Cc1cccc2nc(C(=O)Nc3nc4cc(-c5ccc(C(F)(F)F)cc5Cl)ccc4[nH]3)cn12 [Example 91]
OUTPUT: 0.44

INPUT: # assay system BACE-1 enzyme (Homo sapiens): give IC50 of O=C(Nc1nc2cc(-c3cccc(C(F)(F)F)c3)ccc2[nH]1)c1cn2c(C3CCNCC3)cccc2n1 [Example 218]
OUTPUT: 0.45

----------
target.of.assay: BACE-1 enzyme (Homo sapiens)
Construct: purchased R & D Systems 931AS
experiment.notes: BACE Fluorescence Resonance Energy Transfer (FRET) Assay
Format: biochemical
assay.conditions: pH 4-4.5, 30 min pre-incubation, about 1.5 hours reaction
IC50 values by entry
Write the value in µM as a bare number.

Past entries and their recorded results:
compound	target.of.assay	IC50 / µM
O=C(Nc1nc2cc(-c3cccc(C(F)(F)F)c3)ccc2[nH]1)c1cn2ccc(CNCc3ccncc3)cc2n1 [Example 204]	BACE-1 enzyme (Homo sapiens)	0.47
CN1CCN(c2cc(F)cn3cc(C(=O)Nc4nc5cc(-c6cccc(OC(F)(F)F)c6)ccc5[nH]4)nc23)CC1 [Example 135]	BACE-1 enzyme (Homo sapiens)	0.2
Cc1cc(OCCN2CCCCC2)c2nc(C(=O)Nc3nc4cc(-c5cc(F)cc(Cl)c5)ccc4[nH]3)cn2c1 [Example 149]	BACE-1 enzyme (Homo sapiens)	0.57
CN1CCN(Cc2ccc3nc(C(=O)Nc4nc5cc(-c6cccc(C(F)(F)F)c6)ccc5[nH]4)cn3c2)CC1 [Example 183]	BACE-1 enzyme (Homo sapiens)	0.56
COc1ccc(-c2ccc3[nH]c(NC(=O)c4cn5c(C)cccc5n4)nc3c2)cc1C(F)(F)F [Example 76]	BACE-1 enzyme (Homo sapiens)	0.38

INPUT: Quick one: give measured IC50 for O=C(Nc1nc2cc(-c3cc(F)cc(Cl)c3)ccc2[nH]1)c1cn2cc(Cl)cc(Cl)c2n1 [Example 143]
OUTPUT: 1.06

INPUT: Quick one: give measured IC50 for COCCNc1cc(F)cn2cc(C(=O)Nc3nc4cc(-c5cc(F)cc(Cl)c5)ccc4[nH]3)nc12 [Example 138]
OUTPUT: 1.27

Source: patent US20120101093A1
